experimentSummary: Components of the Cytosolic LPS Sensing Pathway: Gene Identification via Genome-wide siRNA Screen;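 also: robust z of the log signal after scaling to non-targeting control siRNA wells of the plate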
experimentalContext: RAW264.7 macrophages, IL-1a HTRF, actives lie on both sides, screened at 100 nM (by protocol), cells primed 5 h with Pam3CSK4 first
Protocol: Non-canonical inflammasome activation by cytosolic LPS is a critical component of the host response to Gram-negative bacterial infection, however we lack a comprehensive understanding of the cellular processes that control this pathway. […] Lipofectamine RNAiMAX Transfection Reagent ([…]; Invitrogen) was added in […] serum-free, antibiotic-free media to plate wells using a Thermo Scientific Matrix WellMate and Microplate Stacker. […] The plates were read on an EnVision plate reader (PerkinElmer). […]
The whole screen tested about 53,000 sequences, of which about 3,700 (7%) were called active.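 The calls were made as follows: active = gene knockdowns whose robust z-score for IL-1 alpha signal is at least 2 or at most -2, so actives lie on both sides; inactive = the rest.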 This excerpt belongs to a sample that is enriched for actives.
Labels: label 1 = active, label 0 = inactive

{"seqText": "GGUGAAUGAGGACUCUGGGTT against Dcps", "assignedLabel": "label 0"}
{"seqText": "GAAGUCUGUGACCAGUUCCTT against Fgf2os", "assignedLabel": "label 0"}
{"seqText": "GGUGGGAAGAGGAAUACACTT against Iffo1", "assignedLabel": "label 1"}
{"seqText": "GGCUGACCUUCUGUGCUGATT against Olfr876", "assignedLabel": "label 0"}
{"seqText": "GGACCACUUUUUCAGACUCTT against Ralgapa1", "assignedLabel": "label 0"}
{"seqText": "CCAUGAAGAACAAGAAAACTT against 1700010D01Rik", "assignedLabel": "label 0"}
{"seqText": "GGUCCAUGAUUGAAACACGTT against Srpr", "assignedLabel": "label 0"}
{"seqText": "CCCUGUGACUCCAAAAUGATT against Dbh", "assignedLabel": "label 0"}
{"seqText": "CCACAUGCCUGAGAGAUUCTT against Spp2", "assignedLabel": "label 0"}
{"seqText": "GCAAGAAACGGGAACUAUUTT against Mettl7b", "assignedLabel": "label 0"}
{"seqText": "GGGAAAGUUAAUAUCAAGATT against Ephb4", "assignedLabel": "label 0"}
{"seqText": "GGUGACAGAUGUUUAUGAGTT against Ccdc28b", "assignedLabel": "label 0"}

----------
experimentSummary: Components of the Cytosolic LPS Sensing Pathway: Gene Identification via Genome-wide siRNA Screen;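 also: robust z of the log signal after scaling to non-targeting control siRNA wells of the plate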
experimentalContext: RAW264.7 macrophages, IL-1a HTRF, actives lie on both sides, screened at 100 nM (by protocol), cells primed 5 h with Pam3CSK4 first
The whole screen tested about 53,000 sequences, of which about 3,700 (7%) were called active.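 The calls were made as follows: active = gene knockdowns whose robust z-score for IL-1 alpha signal is at least 2 or at most -2, so actives lie on both sides; inactive = the rest.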 Shown is part of a subset that was picked to be rich in actives.
Labels: true = active, false = inactive

{"seqText": "CCACCAGGGAUCGUUAUAATT against Phyh", "assignedLabel": "true"}
{"seqText": "GGCACCUUGGAGUUACAUATT against Pcdha10", "assignedLabel": "false"}
{"seqText": "GGAGUGAUGUCUUCACUGATT against Snx31", "assignedLabel": "false"}
{"seqText": "GGUUAUUCUCAUUUCGGAUTT against Phospho1", "assignedLabel": "false"}
{"seqText": "GGAAUUGUAGAAAGUGUUGTT against Adh4", "assignedLabel": "false"}
{"seqText": "GGGAAGUUAUAAUGGAAGUTT against Rps15a", "assignedLabel": "true"}
{"seqText": "GGGAAUAUUUGGAUAACUUTT against Pak7", "assignedLabel": "true"}
{"seqText": "GGAGAGGUCAGAUAGAAAUTT against Zbtb41", "assignedLabel": "true"}
{"seqText": "GGUUCAGUUUUGGCUGGCUTT against Olfr558", "assignedLabel": "true"}
{"seqText": "CCCAAUGAUCCUAACCAUUTT against Zfp459", "assignedLabel": "false"}
{"seqText": "CGAAACCAACAGUUAGAAGTT against Cby1", "assignedLabel": "false"}
{"seqText": "GGAGAGUGAUGAACAGAUGTT against Pctp", "assignedLabel": "true"}
